The entries below come with measured glycan array binding signal (z-score) values attached.
# TARGET OR TEST SYSTEM: Neu5Ac(a2-3)Gal(b1-4)GlcNAc(b1-3)Gal(b1-4)GlcNAc(b1-6)[Gal(b1-3)]GalNAc
# TEST DETAILS: glycan array binding signal (z-score within array); higher = stronger binding
# CONDITION PARAMETERS: glycan notation: IUPAC condensed, linker removed
The entries come from a sample that favours the strongest signals as a whole.

Please review the entries below; each comes with its answer.
BINDER	glycan array binding signal (z-score)
CM2 (Cordyceps militaris) (protein) MEIAEQNVGKSCAIVNLIPPKEGSNIWTAKQVTIARNLPPNRGTGRHQIDWSFGPVKVTGYVDTTNWEIGVTVSIMGIDLGTVYGNLRDGVVLNVDLFLAKGQVRFYLKNGNEVWVHLSVEIRFDGKFEGDYKIITV	-1.25
DC-ASGPR L+GEE (Homo sapiens) (protein) MTRTYENFQYLENKVKVQGFKNGPLPLQSLLQRLRSGPCHLLLSLGLGLLLLVIICVVGFQNSKFQRDLVTLRTDFSNFTSNTVAEIQALTSQGSSLEETIASLKAEVEGFKQERQAGVSELQEHTTQKAHLGHCPHCPSVCVPVHSEMLLRVQQLVQDLKKLTCQVATLNNNGEEASTEGTCCPVNWVEHQDSCYWFSHSGMSWAEAEKYCQLKNAHLVVINSREEQNFVQKYLGSAYTWMGLSDPEGAWKWVDGTDYATGFQNWKPGQPDDWQGHGLGGGEDCAHFHPDGRWNDDVCQRPYHWVCEAGLGQTSQESH	-0.553

So what's the measured glycan array binding signal (z-score) for this one? CFEM-PPm (Pichia pastoris), F2QPV1 (protein) AVATPPACLLACAAEVVKESSDCDALNNIQCICENEGSAIHACLESTCPDGLSSTALQSFEDVCE
0.598

What about Cohesin-hMARCO (Homo sapiens) (protein) LDDLDAVRIKVDTVNAKPGDTVRIPVRFSGIPSKGIANCDFVYSYDPNVLEIIEIEPGDIIVDPNPDKSFDTAVYPDRKIIVFLFAEDSGTGAYAITKDGVFATIVAKVKEGAPNGLSVIKFVEVGGFANNDLVEQKTQFFDGGANVGDTTEPATPTTPVTTPTTTDDLDAASVRIVGSSNRGRAEVYYSGTWGTICDDEWQNSDAIVFCRMLGYSKGRALYKVGAGTGQIWLDNVQCRGTESTLWSCTKNSWGHHDCSHEEDAGVECSVHHHHHH ?
-0.369

And then LBL-152 (Laetiporus bicolor), B0D650 (protein) MSNEYNPPLGIAFRLCGLASDRVLFSRVSPSPEVFHHPKSEVYPDQWFVAIPGSGQNAGCYAIKSKNTGKVLFSRMSPDPRVGHIDGDGKYPDNWFKFEAGSGKYAGYFRLRAVASDTVLVSRTSTGTDTQVINYPATSAKYDDQYFTILFDHHHHHH , what is it?
-0.162

Gal 12 (Homo sapiens), Q96DT0 (protein) MSQPSGGRAPGTRIYSWSCPTVMSPGEKLDPIPDSFILQPPVFHPVVPYVTTIFGGLHAGKMVMLQGVVPLDAHRFQVDFQCGCSLCPRPDIAFHFNPRFHTTKPHVICNTLHGGRWQREARWPHLALRRGSSFLILFLFGNEEVKVSVNGQHFLHFRYRLPLSHVDTLGIFGDILVEAVGFLNINPFVEGSREYPAGHPFLLMSPRLEVPCSHALPQGLSPGQVIIVRGLVLQEPKHFTVSLRDQAAHAPVTLRASFADRTLAWISRWGQKKLISAPFLFYPQRFFEVLLLFQEGGLKLALNGQGLGATSMNQQALEQLRELRISGSVQLYCVHS ?
-0.81

Let us now turn to rMpL (Macrolepiota procera) (protein) MSTQVSSGRTYKITNVIAGTVIDLSGEDNKSIIGYPYHSGKNQQWTFNWTGKAWTLRSASSGSYLGIEGTPAGGTRLVAVNDPFEWHIWRDEANENAFRIFVPFTNYNLDLSGYGDTTPGTPVQLWWTWEGLHQTWTIDRP
-0.198
